Record form. Attribute: CDK2 % Inhibition at 0.03 μM. Fill in for each entry.
biological target: CDK2/cyclin A (Homo sapiens); construct: made in house; host or cells: CDK2: insect cells (baculovirus); cyclin A: E. coli; experiment: Inhibition of CDK2/cyclin A retinoblastoma kinase activity (Ki; % inhibition); format: biochemical; settings: at 0.03 μM
Please reply with the bare figure in % and do not write the unit itself.

q: Look up CDK2 % Inhibition at 0.03 μM with CDK2/cyclin A (Homo sapiens) for this compound: CCC(CO)NC(=O)c1ccc(Nc2nc(N)c(C(=O)c3c(F)cccc3F)s2)cc1 (stereo not shown) [Example G183]
a: 23

q: Look up CDK2 % Inhibition at 0.03 μM with CDK2/cyclin A (Homo sapiens) for this compound: CC(C)OCCNC(=O)c1ccc(Nc2nc(N)c(C(=O)c3c(F)cccc3F)s2)cc1 [Example G168]
a: 4

q: Look up CDK2 % Inhibition at 0.03 μM with CDK2/cyclin A (Homo sapiens) for this compound: Nc1nc(Nc2ccc(C(=O)Nc3cccc(-c4cnco4)c3)cc2)sc1C(=O)c1c(F)cccc1F [Example G153]
a: 18

q: Look up CDK2 % Inhibition at 0.03 μM with CDK2/cyclin A (Homo sapiens) for this compound: CCC(C)NC(=O)c1ccc(Nc2nc(N)c(C(=O)c3c(F)cccc3F)s2)cc1 (stereo not shown) [Example G148]
a: 5

q: Look up CDK2 % Inhibition at 0.03 μM with CDK2/cyclin A (Homo sapiens) for this compound: CN(C)C(=O)CN(C)C(=O)c1ccc(Nc2nc(N)c(C(=O)c3c(F)cccc3F)s2)cc1 [Example G5]
a: −23

q: Look up CDK2 % Inhibition at 0.03 μM with CDK2/cyclin A (Homo sapiens) for this compound: CN(C)CCN(C)C(=O)c1ccc(Nc2nc(N)c(C(=O)c3c(F)cccc3F)s2)cc1 [Example G57]
a: 17

q: Look up CDK2 % Inhibition at 0.03 μM with CDK2/cyclin A (Homo sapiens) for this compound: CC(CO)NC(=O)c1ccc(Nc2nc(N)c(C(=O)c3c(F)cccc3F)s2)cc1 (stereo not shown) [Example G109]
a: 6

q: Look up CDK2 % Inhibition at 0.03 μM with CDK2/cyclin A (Homo sapiens) for this compound: CCN1CCCC1CNC(=O)c1ccc(Nc2nc(N)c(C(=O)c3c(F)cccc3F)s2)cc1 (stereo not shown) [Example G154]
a: 10

q: Look up CDK2 % Inhibition at 0.03 μM with CDK2/cyclin A (Homo sapiens) for this compound: CCOc1cccc(NC(=O)c2ccc(Nc3nc(N)c(C(=O)c4c(F)cccc4F)s3)cc2)c1 [Example G16]
a: −7

q: Look up CDK2 % Inhibition at 0.03 μM with CDK2/cyclin A (Homo sapiens) for this compound: CN(C(=O)c1ccc(Nc2nc(N)c(C(=O)c3c(F)cccc3F)s2)cc1)C1CCCC1 [Example G80]
a: 3

q: Look up CDK2 % Inhibition at 0.03 μM with CDK2/cyclin A (Homo sapiens) for this compound: CC(C)CNC(=O)c1ccc(Nc2nc(N)c(C(=O)c3c(F)cccc3F)s2)cc1 [Example G126]
a: 3

q: Look up CDK2 % Inhibition at 0.03 μM with CDK2/cyclin A (Homo sapiens) for this compound: CN(CCc1ccccn1)C(=O)c1ccc(Nc2nc(N)c(C(=O)c3c(F)cccc3F)s2)cc1 [Example G71]
a: 3

q: Look up CDK2 % Inhibition at 0.03 μM with CDK2/cyclin A (Homo sapiens) for this compound: COc1ccc(NC(=O)c2ccc(Nc3nc(N)c(C(=O)c4c(F)cccc4F)s3)cc2)cc1Cl [Example G59]
a: 25

q: Look up CDK2 % Inhibition at 0.03 μM with CDK2/cyclin A (Homo sapiens) for this compound: Cc1ccc(NC(=O)c2ccc(Nc3nc(N)c(C(=O)c4c(F)cccc4F)s3)cc2)c(Cl)c1 [Example G44]
a: 8

q: Look up CDK2 % Inhibition at 0.03 μM with CDK2/cyclin A (Homo sapiens) for this compound: Nc1nc(Nc2ccc(C(=O)N3CCN(C=O)CC3)cc2)sc1C(=O)c1c(F)cccc1F [Example G78]
a: 11

q: Look up CDK2 % Inhibition at 0.03 μM with CDK2/cyclin A (Homo sapiens) for this compound: Nc1nc(Nc2ccc(C(=O)Nc3ccc4c(c3)OCO4)cc2)sc1C(=O)c1c(F)cccc1F [Example G52]
a: 10

q: Look up CDK2 % Inhibition at 0.03 μM with CDK2/cyclin A (Homo sapiens) for this compound: Nc1nc(Nc2ccc(C(=O)N3CCN(Cc4ccc5c(c4)OCO5)CC3)cc2)sc1C(=O)c1c(F)cccc1F [Example G62]
a: 7

q: Look up CDK2 % Inhibition at 0.03 μM with CDK2/cyclin A (Homo sapiens) for this compound: COc1cc(NC(=O)c2ccc(Nc3nc(N)c(C(=O)c4c(F)cccc4F)s3)cc2)cc(OC)c1 [Example G86]
a: 10

q: Look up CDK2 % Inhibition at 0.03 μM with CDK2/cyclin A (Homo sapiens) for this compound: COC(CNC(=O)c1ccc(Nc2nc(N)c(C(=O)c3c(F)cccc3F)s2)cc1)OC [Example G97]
a: 2

q: Look up CDK2 % Inhibition at 0.03 μM with CDK2/cyclin A (Homo sapiens) for this compound: CCCOCCNC(=O)c1ccc(Nc2nc(N)c(C(=O)c3c(F)cccc3F)s2)cc1 [Example G165]
a: 1

q: Look up CDK2 % Inhibition at 0.03 μM with CDK2/cyclin A (Homo sapiens) for this compound: Nc1nc(Nc2ccc(C(=O)NCCOc3ccccc3)cc2)sc1C(=O)c1c(F)cccc1F [Example G113]
a: 51

q: Look up CDK2 % Inhibition at 0.03 μM with CDK2/cyclin A (Homo sapiens) for this compound: Nc1nc(Nc2ccc(C(=O)Nc3ccc(S(N)(=O)=O)cc3)cc2)sc1C(=O)c1c(F)cccc1F [Example G82]
a: 24

q: Look up CDK2 % Inhibition at 0.03 μM with CDK2/cyclin A (Homo sapiens) for this compound: CC1CN(C(=O)c2ccc(Nc3nc(N)c(C(=O)c4c(F)cccc4F)s3)cc2)CC(C)O1 (stereo not shown) [Example G18]
a: −10

q: Look up CDK2 % Inhibition at 0.03 μM with CDK2/cyclin A (Homo sapiens) for this compound: Nc1nc(Nc2ccc(C(=O)NCCc3ccccn3)cc2)sc1C(=O)c1c(F)cccc1F [Example G140]
a: 15

q: Look up CDK2 % Inhibition at 0.03 μM with CDK2/cyclin A (Homo sapiens) for this compound: Nc1nc(Nc2ccc(C(=O)NCC(O)c3ccccc3)cc2)sc1C(=O)c1c(F)cccc1F (stereo not shown) [Example G104]
a: 8

q: Look up CDK2 % Inhibition at 0.03 μM with CDK2/cyclin A (Homo sapiens) for this compound: Nc1nc(Nc2ccc(C(=O)NC3CCCC3)cc2)sc1C(=O)c1c(F)cccc1F [Example G131]
a: 6

q: Look up CDK2 % Inhibition at 0.03 μM with CDK2/cyclin A (Homo sapiens) for this compound: COc1ccc(C(F)(F)F)cc1NC(=O)c1ccc(Nc2nc(N)c(C(=O)c3c(F)cccc3F)s2)cc1 [Example G22]
a: 2

q: Look up CDK2 % Inhibition at 0.03 μM with CDK2/cyclin A (Homo sapiens) for this compound: CC(=O)N1CCN(C(=O)c2ccc(Nc3nc(N)c(C(=O)c4c(F)cccc4F)s3)cc2)CC1 [Example G65]
a: 12

q: Look up CDK2 % Inhibition at 0.03 μM with CDK2/cyclin A (Homo sapiens) for this compound: N#CCCN(CC1CCCO1)C(=O)c1ccc(Nc2nc(N)c(C(=O)c3c(F)cccc3F)s2)cc1 (stereo not shown) [Example G179]
a: −5

q: Look up CDK2 % Inhibition at 0.03 μM with CDK2/cyclin A (Homo sapiens) for this compound: COc1cc(NC(=O)c2ccc(Nc3nc(N)c(C(=O)c4c(F)cccc4F)s3)cc2)ccc1C [Example G138]
a: 7

q: Look up CDK2 % Inhibition at 0.03 μM with CDK2/cyclin A (Homo sapiens) for this compound: Nc1nc(Nc2ccc(C(=O)Nc3cccc4cnccc34)cc2)sc1C(=O)c1c(F)cccc1F [Example G83]
a: 16

All values here come from patent US6720346B2.
